For each entry below, report its apparent Kd value.
- Tested on: MS2 coat protein
- TEST_METHOD_NOTES: apparent Kd, MS2 coat protein; higher = weaker binding; RNA-MaP array; tryptophan 2.4 mM where present
- RUN_CONDITIONS: designed as: OFF switch for tryptophan; no ligand
// return numeric value only (unit: nM, not printed)

Entry "GUUUUGGGAUCGGCCGCCACUACAUGAGGAUCACCCAUGUGGACAAAUAGGGUUUUUAAGCUCGGUAGGACCGGGAUUCGAACAU" , apparent Kd reported as 18.1

Entry "UGAUACCAGUCGGCCGCCACUACAUGAGGAUCACCCAUGUAUCCUCAACUGCUAGAUACUAGCAGUAGGACCGGGACUGGUAUCU" , apparent Kd reported as 307

Entry "GAGUAGUAGACGGCCGCCACUAAACAUGAGGAUCACCCAUGUAGUGAUCCGUUACCUAGCGUAGAUAGGACCGGGUCAGAUAGUA" , apparent Kd reported as 26

Entry "AGAUUCGACACGGCCGCCACUUGUGGUGGAUUAUCCUAUGUCGAACAUGAGGAUCACCCAUGUACAAGGACCGGGUGUUGAGUCU" , apparent Kd reported as 401
